Target Or Test System: T1, HLA-A2/E7 (11-19) tetramer (human; HPV 16)
T1 construct: also called E7(11-19) peptide-MHC tetramer; E7 (11-19)-loaded tetramer
Procedure Summary: tetramer flow cytometry; transfected 1:1 CD4+ and CD4+/CD8+ Jurkat-derived cells;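 further: cells transiently transfected with TCR plasmids, stained 48 h later with HLA-A*02:01 peptide-MHC tetramer plus anti-CD8 antibody, read by flow cytometry to assess CD8-independent tetramer binding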
Readout Kind: % cells in E7 tet-/CD8+ quadrant (%)
Give bare numbers, in %.

Hi, could you look up % cells in E7 tet-/CD8+ quadrant for each item in my list?
1. TCR 33 (codon optimized, cysteine modified version) (TCR, V domains shown) V domain 1: QKEVEQNSGPLSVPEGAIASLNCTYSDRGSQSFFWYRQYSGKSPELIMFIYSNGDKEDGRFTAQLNKASQYVSLLIRDSQPSDSATYLCAVNAHHTGGFKTIFGAGTRLFVKA V domain 2: EPEVTQTPSHQVTQMGQEVILRCVPISNHLYFYWYRQILGQKVEFLVSFYNNEISEKSEIFDDQFSVERPDGSNFTLKIRSTKLEDSAMYFCASTPRDTYEQYFGPGTRLTVTE
2. TCR 53 (codon optimized, cysteine modified version) (TCR, V domains shown) V domain 1: AQSVAQPEDQVNVAEGNPLTVKCTYSVSGNPYLFWYVQYPNRGLQFLLKYITGDNLVKGSYGFEAEFNKSQTSFHLKKPSALVSDSALYFCAVRDFGSGTYKYIFG V domain 2: GAGVSQSPRYKVTKRGQDVALRCDPISGHVSLYWYRQALGQGPEFLTYFNYEAQQDKSGLPNDRFSAERPEGSISTLTIQRTEQRDSAMYRCASSGSGTSGYNEQFFGPGTRLTVLE

[out]
12.8
28.7

[in] Value lookup for % cells in E7 tet-/CD8+ quadrant; key = TCR 41 (codon optimized, cysteine modified version) (TCR, V domains shown) V domain 1: RKEVEQDPGPFNVPEGATVAFNCTYSNSASQSFFWYRQDCRKEPKLLMSVYSSGNEDGRFTAQLNRASQYISLLIRDSKLSDSATYLCVVTFALTGGFKTIFGAGTRLFVKA V domain 2: EPEVTQTPSHQVTQMGQEVILRCVPISNHLYFYWYRQILGQKVEFLVSFYNNEISEKSEIFDDQFSVERPDGSNFTLKIRSTKLEDSAMYFCASNPRDRVSYEQYFGPGTRLTVTE
[out] 43.6
